Test system: OCI-LY10
protocolText: CTG Cell Viability Assay - OCI-LY10 (CellTiter-Glo)
Assay type: cell-based
conditionContext: Homo sapiens, 96 h; OCI-LY10 cells, 4 days incubation; read-out: CTG Cell Viability Assay-OCI-LY100: Average external-IC50
readoutType: IC50

Examples with their reported IC50 follow.
>  <smilesStructure>
CN(CCCCOc1ccc(Oc2ccc(N(Cc3ccccc3)C(=O)CCl)cc2)cc1)C[C@H]1CC[C@H](n2cc(NC(=O)c3coc(-c4ccnc(NCC5CC5)c4)n3)c(C(F)F)n2)CC1

>  <IC50>
> 1000 nM

$$$$
>  <smilesStructure>
COCC(=O)N(Cc1ccccc1)c1ccc(Oc2ccc(OCCCCN(C)C[C@H]3CC[C@H](n4cc(NC(=O)c5coc(-c6ccnc(NCC7CC7)c6)n5)c(C(F)F)n4)CC3)cc2)cc1

>  <IC50>
500 to 1000 nM

$$$$

Asked: Notebook: pull reported IC50 for OCI-LY10, entry `CN(CCCCCCCNC(=O)COc1ccc2c(c1)CCCN2C(=O)CCl)C[C@H]1CC[C@H](n2cc(NC(=O)c3coc(-c4ccnc(NCC5CC5)c4)n3)c(C(F)F)n2)CC1`
Given back: > 1000 nM

Asked: Notebook: pull reported IC50 for OCI-LY10, entry `CN(CCCCCCOc1ccc(Oc2ccc(N(Cc3ccccc3)C(=O)CCl)cc2)cc1)C[C@H]1CC[C@H](n2cc(NC(=O)c3coc(-c4ccnc(NCC5CC5)c4)n3)c(C(F)F)n2)CC1`
Given back: 500 to 1000 nM

Asked: Notebook: pull reported IC50 for OCI-LY10, entry `CN(CCCCOc1ccc(Oc2ccc(N(Cc3ccccc3)C(=O)CCl)cc2)cc1)C[C@H]1CC[C@H](n2cc(N(C)C(=O)c3coc(-c4ccnc(NCC5CC5)c4)n3)c(C(F)F)n2)CC1`
Given back: 500 to 1000 nM

Asked: Notebook: pull reported IC50 for OCI-LY10, entry `CN(CCCCCCCCCCOc1ccc(Oc2ccc(N(Cc3ccccc3)C(=O)CCl)cc2)cc1)C[C@H]1CC[C@H](n2cc(NC(=O)c3coc(-c4ccnc(NCC5CC5)c4)n3)c(C(F)F)n2)CC1`
Given back: 500 to 1000 nM

---

System: OCI-LY10
protocolText: CTG Cell Viability Assay - OCI-LY10 (CellTiter-Glo)
Assay type: cell-based
conditionContext: Homo sapiens, 96 h; OCI-LY10 cells, 4 days incubation; read-out: CTG Cell Viability Assay-OCI-LY100: Average external-IC50
readoutType: IC50

>  <molecule>
CN(CCCCCNC(=O)COc1ccc2c(c1)CCCN2C(=O)CCl)C[C@H]1CC[C@H](n2cc(NC(=O)c3coc(-c4ccnc(NCC5CC5)c4)n3)c(C(F)F)n2)CC1 [I-2]

>  <IC50>
> 1000 nM

$$$$
>  <molecule>
CN(CCCCCCCCCNC(=O)COc1ccc2c(c1)CCCN2C(=O)CCl)C[C@H]1CC[C@H](n2cc(NC(=O)c3coc(-c4ccnc(NCC5CC5)c4)n3)c(C(F)F)n2)CC1 [I-4]

>  <IC50>
> 1000 nM

$$$$
>  <molecule>
CN(CCCCCCCCOc1ccc(Oc2ccc(N(Cc3ccccc3)C(=O)CCl)cc2)cc1)C[C@H]1CC[C@H](n2cc(NC(=O)c3coc(-c4ccnc(NCC5CC5)c4)n3)c(C(F)F)n2)CC1 [I-7]

>  <IC50>
500 to 1000 nM

$$$$
>  <molecule>
CN(CCCNC(=O)COc1ccc2c(c1)CCCN2C(=O)CCl)C[C@H]1CC[C@H](n2cc(NC(=O)c3coc(-c4ccnc(NCC5CC5)c4)n3)c(C(F)F)n2)CC1 [I-1]

>  <IC50>
> 1000 nM

$$$$

As a next step, examine the molecule that follows.
Asked: Need IC50, item COCC(=O)N1CCCc2cc(OCC(=O)NCCCCCN(C)C[C@H]3CC[C@H](n4cc(NC(=O)c5coc(-c6ccnc(NCC7CC7)c6)n5)c(C(F)F)n4)CC3)ccc21 [I-9]
Given back: > 1000 nM
